# Measured On: MASP-2 CCP2-SP (Homo sapiens (Human), UniProt O00187)
# Sequence (O00187 445-686): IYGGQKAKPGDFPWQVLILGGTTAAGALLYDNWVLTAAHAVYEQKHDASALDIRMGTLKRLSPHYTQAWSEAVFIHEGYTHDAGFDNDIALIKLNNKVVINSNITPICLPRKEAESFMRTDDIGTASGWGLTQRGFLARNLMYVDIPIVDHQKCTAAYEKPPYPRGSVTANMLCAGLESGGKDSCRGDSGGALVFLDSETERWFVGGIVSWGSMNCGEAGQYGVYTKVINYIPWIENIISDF
# Sequence (O00187 364-432 partner): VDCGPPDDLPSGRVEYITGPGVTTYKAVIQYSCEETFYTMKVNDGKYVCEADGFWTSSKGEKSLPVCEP
# Test Protocol: MASP-2 co-crystallization, X-ray crystallography and structure analysis (H-bonds, van der Waals contacts)
# Particulars: Table A1 (H-Bonds); SER 657 O
Counter-ions that a name gives are not always drawn.
Quantity Measured: H-bond distance to MASP-2 SER 657 atom O
Lab note: write the figure by itself, no unit.

Check out these entries, answers already filled in.
{"Compound": "C[C@H](NC(=O)[C@H](N)CCc1cc(Cl)cc(Cl)c1)C(=O)NCc1ccc(C(=N)N)cc1", "Measured On": "MASP-2 CCP2-SP (Homo sapiens (Human), UniProt O00187)", "Result Value": 2.93}
{"Compound": "Cc1nc(N)ccc1CNC(=O)[C@H](C)NC(=O)[C@H]1C[C@@H](c2ccccc2)CCN1 [compound 1253, Dihydrochloride]", "Measured On": "MASP-2 CCP2-SP (Homo sapiens (Human), UniProt O00187)", "Result Value": 2.85}
{"Compound": "C[C@H](NC(=O)[C@H](N)C1Cc2ccccc2C1)C(=O)NCc1ccc2nc(N)[nH]c2c1", "Measured On": "MASP-2 CCP2-SP (Homo sapiens (Human), UniProt O00187)", "Result Value": 2.77}

As a next step, examine the compound that follows.
Look up and state reported H-bond distance to MASP-2 SER 657 atom O for Cc1cnc(NCCc2ccccc2)c(=O)n1CC(=O)NCc1ccc2nc(N)[nH]c2c1
2.72

---

# Measured On: UniProtKB O00187
# Test Protocol: MASP-2 co-crystallization, X-ray crystallography and structure analysis (H-bonds, van der Waals contacts)
# Particulars: Table A4-2; element H3
In this section, each of the molecules is paired with its reported Ligand-pharmacophore element distance, pharmacophore element H3.
Lab note: write the figure by itself, no unit.

Check out these entries, answers already filled in.
{"Molecule": "C[C@H](NC(=O)[C@H](N)CCc1ccccc1)C(=O)NCc1ccc(C(=N)N)cc1", "Result Value": 4.93}
{"Molecule": "C[C@H](NC(=O)[C@H](N)CCCc1ccccc1)C(=O)NCc1ccc(C(=N)N)cc1.Cl.Cl [1042_2]", "Result Value": 5.3}
{"Molecule": "N=C(N)c1ccc(CNC(=O)[C@@H]2CCN2C(=O)[C@H]2Cc3ccccc3CN2)cc1", "Result Value": 1.08}

For UniProtKB O00187, give Ligand-pharmacophore element distance, pharmacophore element H3 of the listed molecule: C[C@H](NC(=O)[C@H](N)CCCc1ccccc1)C(=O)NCc1ccc(C(=N)N)cc1.Cl.Cl [1042_1]
5.4

For UniProtKB O00187, give Ligand-pharmacophore element distance, pharmacophore element H3 of the listed molecule: N=C(N)c1ccc(CNC(=O)[C@@H]2CCN2C(=O)[C@H](NCC(=O)O)C2Cc3ccccc3C2)cc1
1.34

For UniProtKB O00187, give Ligand-pharmacophore element distance, pharmacophore element H3 of the listed molecule: O=c1oc(-c2ccccc2[N+](=O)[O-])nc2ccccc12
0

---

In this section, each of the compounds is paired with its reported van der Waals contact distance, VAL 653 CG1 to compound atom.
# Measured On: MASP-2 CCP2-SP (Homo sapiens (Human))
# Test Protocol: MASP-2 co-crystallization, X-ray crystallography and structure analysis (H-bonds, van der Waals contacts)
# Particulars: Table A2-11
# From the text: This example illustrates the preparation of recombinant MASP-2 protein, based on UniProt O00187, human mannan-binding lectin serine protease 2. Expression constructs for human MASP-2 CCP2-SP and CCP2-SP-6HIS were generated for recombinant expression in E. coli cells. […]
Where a name gives a salt, the structure may show the parent alone.
Lab note: write the figure by itself, no unit.

{"Compound": "Cc1nc(N)ccc1CNC(=O)[C@H](C)NC(=O)[C@H]1C[C@H](Cc2cccc(-c3ccccc3)c2)CN1", "Measured On": "MASP-2 CCP2-SP (Homo sapiens (Human))", "Result Value": 3.27}
{"Compound": "Cc1nc(N)ccc1CNC(=O)[C@H](C)NC(=O)[C@H]1C[C@H](Cc2cccc(Cl)c2)CN1", "Measured On": "MASP-2 CCP2-SP (Homo sapiens (Human))", "Result Value": 3.23}
{"Compound": "C[C@H](NC(=O)[C@H]1C[C@@H](c2ccccc2)CCN1)C(=O)NCc1cnc2[nH]cc(Cl)c2c1", "Measured On": "MASP-2 CCP2-SP (Homo sapiens (Human))", "Result Value": 3.71}
{"Compound": "Cc1nc(N)ccc1CNC(=O)[C@H](C)NC(=O)[C@H]1C[C@@H](c2ccccc2)CCN1CCC(=O)O [compound 1411, Trifluoroacetate salt]", "Measured On": "MASP-2 CCP2-SP (Homo sapiens (Human))", "Result Value": 3.52}
{"Compound": "Cc1cc(Cl)cc(CNC(=O)[C@H](C)NC(=O)[C@H]2C[C@H](Cc3ccccc3)CN2)c1O", "Measured On": "MASP-2 CCP2-SP (Homo sapiens (Human))", "Result Value": 3.47}
{"Compound": "CC(=O)Nc1ccc(CCN[C@H](CCc2ccccc2)C(=O)N[C@@H](C)C(=O)NCc2ccc(N)nc2C)cc1 [compound 1368, Dihydrochloride]", "Measured On": "MASP-2 CCP2-SP (Homo sapiens (Human))", "Result Value": 3.32}

Look up and state reported van der Waals contact distance, VAL 653 CG1 to compound atom for C[C@H](NC(=O)[C@H](N)CCc1ccccc1)C(=O)NCc1cc(Cl)ccc1O [compound 1031, Hydrochloride]
3.58

Look up and state reported van der Waals contact distance, VAL 653 CG1 to compound atom for Cc1nc(N)ccc1CNC(=O)[C@H](C)NC(=O)[C@H]1C[C@H](Cc2ccccc2-c2ccccc2)CN1 [compound 1373, Di-trifluoroacetate salt]
3.34

Look up and state reported van der Waals contact distance, VAL 653 CG1 to compound atom for N=C(N)c1ccc(CNC(=O)C(CF)NC(=O)[C@H](N)CCc2ccccc2)cc1 (stereo partly shown) [compound 1050, Dihydrochloride]
3.74

Look up and state reported van der Waals contact distance, VAL 653 CG1 to compound atom for C[C@H](NC(=O)[C@H]1C[C@@H](c2ccccc2)CCN1)C(=O)NCc1ccc(C(=N)N)cc1 (stereo in doubt)
3.6

Look up and state reported van der Waals contact distance, VAL 653 CG1 to compound atom for Cc1nc(N)ccc1CNC(=O)[C@H](C)NC(=O)[C@H]1C[C@H](Cc2ccccc2)CN1
3.27

Look up and state reported van der Waals contact distance, VAL 653 CG1 to compound atom for Cc1nc(N)ccc1CNC(=O)[C@H](C)NC(=O)[C@H]1C[C@H](Cc2ccc3ccccc3c2)CN1
3.33

Look up and state reported van der Waals contact distance, VAL 653 CG1 to compound atom for C[C@H](NC(=O)[C@H](N)CCc1cc(Cl)cc(Cl)c1)C(=O)NCc1ccc(C(=N)N)cc1
3.86

---

# Measured On: MASP-2 CCP2-SP (Homo sapiens (Human))
# Test Protocol: MASP-2 co-crystallization, X-ray crystallography and structure analysis (H-bonds, van der Waals contacts)
# Particulars: Table A4-1; element CA5
Where a name gives a salt, the structure may show the parent alone.
In this section, each of the molecules is paired with its reported Ligand-pharmacophore element distance, pharmacophore element CA5.
Lab note: write the figure by itself, no unit.

{"Molecule": "C[C@H](NC(=O)[C@H](N)CCCc1ccccc1)C(=O)NCc1ccc(C(=N)N)cc1.Cl.Cl [1042_2]", "Result Value": 0}
{"Molecule": "C[C@H](NC(=O)[C@H]1C[C@@H](c2ccccc2)CCN1)C(=O)NCc1cc(Cl)ccc1O.Cl [1078_7]", "Result Value": 0}
{"Molecule": "CC(=O)Nc1ccc(CCNC(CCc2ccccc2)C(=O)NC(C)C(=O)NCc2ccc(C(=N)N)cc2)cc1.Cl.Cl (centres unmarked) [1345_1]", "Result Value": 0}
{"Molecule": "N=C(N)c1ccc(CNC(=O)[C@@H]2CCN2C(=O)[C@H](NCC(=O)O)C2Cc3ccccc3C2)cc1 [compound 1129]", "Result Value": 0.67}
{"Molecule": "Cc1cnc(NCCc2ccccc2)c(=O)n1CC(=O)NCc1ccc2nc(N)[nH]c2c1 [compound 1492]", "Result Value": 0.84}
{"Molecule": "C[C@H](NC(=O)[C@@H](CCc1ccccc1)NCCCc1ccc(O)cc1)C(=O)NCc1ccc(C(=N)N)cc1.Cl.Cl [1145_B]", "Result Value": 0}
{"Molecule": "C[C@H](NC(=O)[C@H]1C[C@@H](c2ccccc2)CN1)C(=O)NCc1ccc2c(N)nccc2c1.Cl.Cl [1089_A]", "Result Value": 0}
{"Molecule": "C[C@H](NC(=O)[C@H](N)CCc1ccccc1)C(=O)NCc1ccc(C(=N)N)cc1 [compound 1024]", "Result Value": 0}
{"Molecule": "C[C@H](NC(=O)[C@H](N)C1Cc2ccccc2C1)C(=O)NCc1ccc2nc(N)[nH]c2c1 [compound 1059]", "Result Value": 0}
{"Molecule": "CC(=O)Nc1ccc(CCN[C@H](CCc2ccccc2)C(=O)N[C@@H](C)C(=O)NCc2ccc(N)nc2C)cc1 [compound 1368, Dihydrochloride]", "Result Value": 2.23}

Look up and state reported Ligand-pharmacophore element distance, pharmacophore element CA5 for Cc1nc(N)ccc1CNC(=O)[C@H](C)NC(=O)[C@H]1C[C@H](Cc2cccc(Cl)c2)CN1.Cl.Cl [1328_3]
0

Look up and state reported Ligand-pharmacophore element distance, pharmacophore element CA5 for C[C@H](NC(=O)[C@H](N)CCc1ccccc1)C(=O)NCc1ccc(N)nc1.Cl.Cl [1007_1]
0

Look up and state reported Ligand-pharmacophore element distance, pharmacophore element CA5 for N=C(N)c1ccc(CNC(=O)C(CF)NC(=O)[C@H](N)CCc2ccccc2)cc1 (some centres unmarked) [compound 1050, Dihydrochloride]
0
